Entry source: the supplement of paper PMC9262897

Tested on: E. coli TESEC Mtb Alr
Assay: growth (OD600 after 10 h); higher = more growth (less inhibition)
Conditions: arabinose 10000000 nM; compound 0.1 mM; raw OD600 reference: median of DMSO wells […], cell-free background 0.052
Structures can show the parent of a compound that is named as a salt.
Collected growth values appear next to each entry.

# MOLECULE, growth
rows = [
    ("COc1ccc(C(=O)c2ccccc2)c(O)c1 [Oxybenzone]", 0.146),
    ("CC(=O)Nc1ccc(OCC(O)CNC(C)C)cc1 (stereo not drawn) [Practolol]", 0.361),
    ("Oc1c(I)cc(Cl)c2cccnc12 [Clioquinol]", 0.0669),
    ("CCC(=O)O[C@]1(C(=O)CCl)[C@@H](C)C[C@H]2[C@@H]3CCC4=CC(=O)C=C[C@]4(C)[C@@]3(F)[C@@H](O)C[C@@]21C [Clobetasol propionate]", 0.122),
    ("Fc1ccc(C(c2ccc(F)cc2)N2CCN(C/C=C/c3ccccc3)CC2)cc1 [Flunarizine dihydrochloride]", 0.128),
    ("Cc1oncc1C(=O)Nc1ccc(C(F)(F)F)cc1 [Leflunomide]", 0.158),
    ("Nc1ccc(S(=O)(=O)Nc2ncccn2)cc1 [Sulfadiazine]", 0.312),
    ("OC(CCN1CCCCC1)(c1ccccc1)C1CC2C=CC1C2 (stereo not drawn) [Biperiden hydrochloride]", 0.359),
    ("COc1c(O[C@@H]2O[C@H](CO)[C@@H](O)[C@H](O)[C@H]2O)cc2c(c1OC)-c1ccc(SC)c(=O)cc1[C@@H](NC(C)=O)CC2 [Thiocolchicoside]", 0.35),
    ("N/C(=N\\C(=O)c1nc(Cl)c(N)nc1N)NCc1ccccc1 [Benzamil hydrochloride]", 0.299),
    ("CC(C)NC(=N)NC(=N)Nc1ccc(Cl)cc1 [Proguanil hydrochloride]", 0.345),
    ("CCN(CC)C(=O)N1CCN(C)CC1 [Diethylcarbamazine citrate]", 0.33),
    ("CN[C@@H]1[C@@H](O)[C@@H](O[C@@H]2[C@@H](O)[C@H](O[C@H]3OC(CN)=CC[C@H]3N)[C@@H](N)C[C@H]2N)OC[C@]1(C)O [Sisomicin sulfate]", 0.307),
    ("Nc1c(Br)cc(Br)cc1CN[C@H]1CC[C@H](O)CC1 [Ambroxol hydrochloride]", 0.312),
    ("CC(C(=O)O)c1ccc2c(c1)[nH]c1ccc(Cl)cc12 (stereo not drawn) [Carprofen]", 0.149),
    ("CN(C)[C@@H]1C(=O)C(C(=O)NCNCCCC[C@H](N)C(=O)O)=C(O)[C@@]2(O)C(=O)C3=C(O)c4c(O)cccc4[C@@](C)(O)[C@H]3C[C@@H]12 [Lymecycline]", 0.0693),
    ("CCC(Cc1c(I)cc(I)c(N)c1I)C(=O)O (stereo not drawn) [Iopanoic acid]", 0.0809),
    ("C[C@H](Cc1cc2c(c(C(N)=O)c1)N(CCCO)CC2)NCCOc1ccccc1OCC(F)(F)F [Silodosin]", 0.329),
]

====

Below is a list of entries, each paired with its recorded growth value.
Test system: E. coli TESEC Alr+ wild-type control
Test: growth (OD600 after 10 h); higher = more growth (less inhibition)
Conditions: compound 0.1 mM; raw OD600 reference: median of DMSO wells 0.49, cell-free background 0.052
Structures can show the parent of a compound that is named as a salt.

# COMPOUND, growth
rows = [
    ("CCCc1nc(C)c2c(=O)nc(-c3cc(S(=O)(=O)N4CCN(CC)CC4)ccc3OCC)[nH]n12 [Vardenafil]", 0.55),
    ("CC(N)C12CC3CC(CC(C3)C1)C2 (stereo not drawn) [Rimantadine Hydrochloride]", 0.583),
    ("CO[C@H]1C[C@H](O[C@H]2[C@H](C)[C@@H](O[C@@H]3O[C@H](C)C[C@H](N(C)C)[C@H]3OC(C)=O)[C@@H](C)C[C@@]3(CO3)C(=O)[C@H](C)[C@@H](OC(C)=O)[C@@H](C)[C@@H](C)OC(=O)[C@@H]2C)O[C@@H](C)[C@@H]1OC(C)=O [Troleandomycin]", 0.0617),
]

====

Tested on: E. coli TESEC Mtb DapB
Test: growth (OD600 after 10 h); higher = more growth (less inhibition)
Conditions: arabinose induction (level): High; compound 0.1 mM; raw OD600 reference: median of DMSO wells […], cell-free background 0.041
Structures can show the parent of a compound that is named as a salt.
# growth listing for each entry below
OBSERVABLE: growth

# COMPOUND, OBS VALUE
records = [
    ("CCCCOc1ccc(C(=O)CCN2CCCCC2)cc1 [Dyclonine hydrochloride]", 0.149),
    ("CC(=O)[C@H]1CC[C@H]2[C@@H]3C[C@H](C)C4=CC(=O)CC[C@]4(C)[C@H]3[C@@H](O)C[C@]12C [Medrysone]", 0.179),
    ("CCOC(=O)n1ccn(C)c1=S [Carbimazole]", 0.216),
    ("CCCCC1(COC(=O)CCC(=O)O)C(=O)N(c2ccccc2)N(c2ccccc2)C1=O [Suxibuzone]", 0.176),
    ("CCN(CC)C(=O)N1CCN(C)CC1 [Diethylcarbamazine citrate]", 0.188),
    ("NC[C@H]1CC[C@H](C(=O)O)CC1 [Tranexamic acid]", 0.188),
    ("CC(C)Oc1ccc2c(=O)c(-c3ccccc3)coc2c1 [Ipriflavone]", 0.191),
    ("OCCOCCN1CCN(C(c2ccccc2)c2ccc(Cl)cc2)CC1 (centres undefined) [Hydroxyzine dihydrochloride]", 0.182),
    ("CC(C)NCC(O)c1ccc(O)c(O)c1 (single isomer, unassigned; (+)) [(+)-Isoproterenol (+)-bitartrate salt]", 0.202),
    ("CC(=O)O[C@]1(C(C)=O)CC[C@H]2[C@@H]3C=C(C)C4=CC(=O)CC[C@]4(C)[C@H]3CC[C@@]21C [Megestrol acetate]", 0.206),
    ("O=C(C1CCCCC1)N1CC(=O)N2CCc3ccccc3C2C1 (centres undefined) [Praziquantel]", 0.174),
    ("CN(Cc1ccc(C(C)(C)C)cc1)Cc1cccc2ccccc12 [Butenafine Hydrochloride]", 0.15),
    ("O=C(NCCNCC(O)COc1ccc(O)cc1)N1CCOCC1 (centres undefined) [Xamoterol hemifumarate]", 0.21),
    ("NNC(=O)c1ccncc1 [Isoniazid]", 0.194),
]

====

growth values, listed per item
System: E. coli TESEC Mtb Asd
Assay: growth (OD600 after 10 h); higher = more growth (less inhibition)
Conditions: arabinose induction (level): Low; compound 0.1 mM; raw OD600 reference: median of DMSO wells 0.417, cell-free background 0.041
Structures can show the parent of a compound that is named as a salt.

# MOLECULE, ASSAY SYSTEM, growth
measured = [
    ("CC(C)(Oc1ccc(CCNC(=O)c2ccc(Cl)cc2)cc1)C(=O)O [Bezafibrate]", "E. coli TESEC Mtb Asd", 0.298),
    ("CC(=O)c1ccc2c(c1)N(CCCN(C)C)c1ccccc1S2 [Acetopromazine maleate salt]", "E. coli TESEC Mtb Asd", 0.301),
    ("CC1(C)S[C@@H]2[C@H](NC(=O)[C@H](C(=O)O)c3ccsc3)C(=O)N2[C@H]1C(=O)O [Ticarcillin sodium]", "E. coli TESEC Mtb Asd", 0.305),
]

====

Listing: growth of selected compounds
System: E. coli TESEC Mtb Alr
Assay: growth (OD600 after 10 h); higher = more growth (less inhibition)
Conditions: arabinose 100 nM; compound 0.1 mM; raw OD600 reference: median of DMSO wells 0.413, cell-free background 0.052
Counter-ions that a name gives are not always drawn.

# COMPOUND, ASSAY SYSTEM, growth
data = [
    ("COc1ccc2cc(CCC(C)=O)ccc2c1 [Nabumetone]", "E. coli TESEC Mtb Alr", 0.399),
    ("C=C(CC)C(=O)c1ccc(OCC(=O)O)c(Cl)c1Cl [Ethacrynic acid]", "E. coli TESEC Mtb Alr", 0.376),
    ("CN[C@H](CC(C)C)C(=O)N[C@H]1C(=O)N[C@@H](CC(N)=O)C(=O)N[C@H]2C(=O)N[C@H]3C(=O)N[C@H](C(=O)N[C@H](C(=O)O)c4cc(O)cc(O)c4-c4cc3ccc4O)[C@H](O)c3ccc(c(Cl)c3)Oc3cc2cc(c3O[C@@H]2O[C@H](CO)[C@@H](O)[C@H](O)[C@H]2O[C@H]2C[C@](C)(N)[C@H](O)[C@H](C)O2)Oc2ccc(cc2Cl)[C@H]1O [Vancomycin hydrochloride]", "E. coli TESEC Mtb Alr", 0.217),
    ("CCc1nn(CCCN2CCN(c3cccc(Cl)c3)CC2)c(=O)n1CCOc1ccccc1 [Nefazodone HCl]", "E. coli TESEC Mtb Alr", 0.29),
    ("O=C1c2ccccc2S(=O)(=O)N1CCCCN1CCN(c2ncccn2)CC1 [Ipsapirone]", "E. coli TESEC Mtb Alr", 0.4),
    ("C=C1C(=O)O[C@H]2[C@H]1CC/C(C)=C/CC[C@@]1(C)O[C@@H]21 [Parthenolide]", "E. coli TESEC Mtb Alr", 0.404),
    ("CC[C@H](C)C(=O)O[C@H]1C[C@H](O)C=C2C=C[C@H](C)[C@H](CC[C@@H](O)C[C@@H](O)CC(=O)O)[C@H]21 [Pravastatin]", "E. coli TESEC Mtb Alr", 0.419),
    ("C[C@H](N[C@@H](CCc1ccccc1)C(=O)O)C(=O)N1CCC[C@H]1C(=O)O [Enalaprilat dihydrate]", "E. coli TESEC Mtb Alr", 0.411),
    ("COc1cc2ncnc(Nc3ccc(F)c(Cl)c3)c2cc1OCCCN1CCOCC1 [Gefitinib]", "E. coli TESEC Mtb Alr", 0.284),
    ("Nc1ccc(C(=O)O)c(O)c1 [4-aminosalicylic acid]", "E. coli TESEC Mtb Alr", 0.422),
    ("COCCOC(=O)C1=C(C)NC(C)=C(C(=O)OC/C=C/c2ccccc2)C1c1cccc([N+](=O)[O-])c1 (configuration not stated) [Cilnidipine]", "E. coli TESEC Mtb Alr", 0.457),
    ("O=C(O)CCC(=O)c1ccc(-c2ccccc2)cc1 [Fenbufen]", "E. coli TESEC Mtb Alr", 0.399),
]
